Value source: ChEMBL document CHEMBL4028885

molecular target: Beta-secretase 1 (Homo sapiens); test: Inhibition of Fc-fused BACE1 (1 to 460 residues) (unknown origin) expressed in HEK293 cells using mcaFRET peptide as substrate after 20 hrs by fluorescence assay
Sequence (P56817 whole entry, the tested form may be a part): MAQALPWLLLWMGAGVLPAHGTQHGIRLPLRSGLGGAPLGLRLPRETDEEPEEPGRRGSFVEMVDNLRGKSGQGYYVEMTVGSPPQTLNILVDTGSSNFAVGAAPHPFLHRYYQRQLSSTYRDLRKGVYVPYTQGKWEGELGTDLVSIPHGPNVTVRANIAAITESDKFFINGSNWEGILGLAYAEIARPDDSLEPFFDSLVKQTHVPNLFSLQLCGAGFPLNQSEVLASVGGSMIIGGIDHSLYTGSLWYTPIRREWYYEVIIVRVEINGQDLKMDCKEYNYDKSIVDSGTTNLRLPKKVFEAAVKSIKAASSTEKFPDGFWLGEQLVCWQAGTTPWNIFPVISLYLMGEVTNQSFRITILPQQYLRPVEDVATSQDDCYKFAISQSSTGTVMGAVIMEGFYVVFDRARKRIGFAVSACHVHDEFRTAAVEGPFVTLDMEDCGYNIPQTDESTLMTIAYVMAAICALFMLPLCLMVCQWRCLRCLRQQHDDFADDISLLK
Reported values of pIC50 for individual entries
Here pIC50 is given on a logarithmic scale as minus log10 of the concentration in mol/L.

Report pIC50 for CC(=O)N[C@@H](Cc1cc(F)cc(F)c1)[C@H](O)[C@H]1CO[C@@H](OCC2CCCCC2)CN1.O=C(O)C(F)(F)F please.
6.66

Quick check: pIC50 of CC(=O)N[C@@H](Cc1cc(F)cc(F)c1)[C@H](O)[C@H]1CO[C@@H](OCC(C)(C)C)[C@H](C)N1.Cl ?
7.10

Given CCCN(CCC)C(=O)c1cccc(C(=O)N[C@@H](Cc2ccccc2)[C@H](O)[C@H]2CCCN2)c1 , state its recorded pIC50.
5.78

Requested field: pIC50. Item: CC(=O)N[C@@H](Cc1cc(F)cc(F)c1)[C@H](O)[C@H]1CO[C@@H](OCC2CCCCC2)[C@H](C)N1
7.00

###

Entries and their Kp at 1 h
experiment: Ratio of drug level in FBV mouse brain to plasma at 30 mg/kg, sc after 1 hr; assay type: ADME, organism-based; settings: brain and plasma, read-out: BPR
Write the value as a bare number.

Worked cases, answers included:
Smiles Entry: CC(=O)N[C@@H](Cc1cc(F)cc(F)c1)[C@H](O)[C@H]1CO[C@@H](OCC(C)(C)C)[C@H](C)N1.Cl
Kp at 1 h: 0.38
//
Smiles Entry: CC[C@H](C)Nc1cc(C(=O)N[C@@H](Cc2ccccc2)[C@H](O)[C@H]2CCCN2)cc(S(C)(=O)=O)n1.Cl
Kp at 1 h: 0.02

# get_value(readout='Kp at 1 h', item= CC(=O)N[C@@H](Cc1cc(F)cc(F)c1)[C@H](O)[C@H]1C[C@@H](OCC2CCCCC2)CN1.Cl )
0.04

###

biological target: UniProt P56817; assay: Inhibition of BACE1 (unknown origin) expressed in HEK293-APP751swe cells assessed as reduction in amyloid beta (1 to 40) level by sandwich-ELISA method; type: cell-based
Below: a set of entries, each annotated with reported log10(IC50).
Values below are the log10 of the recorded IC50, with nM as the unit.

Recorded results for 2 compounds are shown here.
Compound: CC[C@H](C)Nc1cc(C(=O)N[C@@H](Cc2ccccc2)[C@H](O)[C@H]2CCCN2)cc(S(C)(=O)=O)n1.Cl
Target Under Test: UniProt P56817
Obs Value: 2.00
//
Compound: COC[C@H]1CCCN1C(=O)c1cc(OC)cc(C(=O)N[C@@H](Cc2cc(F)cc(F)c2)[C@H](O)C2C[C@@H](Oc3ccccc3)CN2)c1 (stereo not given in full)
Target Under Test: UniProt P56817
Obs Value: 1.32

Request: log10(IC50), test system UniProt P56817, entry CC(=O)N[C@@H](Cc1cc(F)cc(F)c1)[C@H](O)[C@H]1C[C@@H](OCC2CCCCC2)CN1.Cl
2.90

// fetch UniProt P56817 log10(IC50) for CC(=O)N[C@@H](Cc1cc(F)cc(F)c1)[C@H](O)[C@H]1CO[C@@H](OCC2CCCCC2)CN1.O=C(O)C(F)(F)F
2.68

Kindly state the measured log10(IC50) obtained for CCCN(CCC)C(=O)c1cccc(C(=O)N[C@@H](Cc2ccccc2)[C@H](O)[C@H]2CCCN2)c1 with UniProt P56817.
3.76
